Reported normalized RNA/DNA level without ligand (log10) values for a set of variants
B1: library; a variant is named by its letters at N, in order (parent)
chain: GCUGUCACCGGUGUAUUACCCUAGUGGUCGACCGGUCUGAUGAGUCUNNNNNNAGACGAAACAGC

variants of: B1; assay: normalized RNA/DNA level without ligand (relative to sTRSVctl = 100) (log10 (% of sTRSVctl)); ligand: hypoxanthine (xanthine aptamer); higher = less ribozyme self-cleavage, higher mRNA level; conditions: HEK293T, reporter: mCherry (pCS4076), ligand present: no
A bare number is all that is needed in reply.

Please review the entries below; each comes with its answer.
sequence_variant=AGGCUU value_measured=1.89
sequence_variant=AGCGUA value_measured=1.77
sequence_variant=CGGCUU value_measured=1.93

For AGGGAA , what is its reported normalized RNA/DNA level without ligand (log10)? 1.68

For UAUGCG , what is its reported normalized RNA/DNA level without ligand (log10)? 1.67

For ACUAGU , what is its reported normalized RNA/DNA level without ligand (log10)? 1.71

For AUUGCU , what is its reported normalized RNA/DNA level without ligand (log10)? 1.88

For CCUCCA , what is its reported normalized RNA/DNA level without ligand (log10)? 1.95

For UCAAGC , what is its reported normalized RNA/DNA level without ligand (log10)? 1.87

For CUACCC , what is its reported normalized RNA/DNA level without ligand (log10)? 1.88
